Cited source for all entries: ChEMBL document CHEMBL1157646

Experiment: Toxicity in mouse B16-4A5 cells assessed as inhibition of cell proliferation at 1 uM in presence of 1 mM theophylline after 72 hrs by WST8 dye reduction assay
Type: cell-based
Exercise: for every item that follows, state its recorded inhibition at 72 h, 1 µM.
One number for each entry, in %.

Some compounds with known inhibition at 72 h, 1 µM results, for comparison:
# compound, readout_label, endpoint_value
measured = [
    ("COc1cc([C@@H]2Oc3cc([C@H]4Oc5cc(O)cc(O)c5C(=O)[C@@H]4O)ccc3O[C@H]2CO)ccc1O", "inhibition at 72 h, 1 µM", -2),
    ("O=c1c(O)c(-c2ccc(O)cc2)oc2cc(O)cc(O)c12", "inhibition at 72 h, 1 µM", 3),
    ("O=Cc1ccc(O)cc1 [4-HYDROXYBENZALDEHYDE]", "inhibition at 72 h, 1 µM", -8.4),
    ("COc1cc(/C=C/C=O)ccc1O", "inhibition at 72 h, 1 µM", -4.2),
    ("COc1cc([C@H]2Oc3c(OC)cc(/C=C/CO)cc3[C@@H]2CO)ccc1O", "inhibition at 72 h, 1 µM", -2.7),
    ("COc1cc([C@H]2Oc3ccc([C@H]4Oc5cc(O)cc(O)c5C(=O)[C@@H]4O)cc3O[C@@H]2CO)ccc1O", "inhibition at 72 h, 1 µM", -2.2),
]

Batch request: inhibition at 72 h, 1 µM per item, same order as input.
1. COc1cc(C(O)C(CO)Oc2ccc(/C=C/C=O)cc2OC)ccc1O (centres undefined)
2. COc1ccc([C@H]2Oc3c(OC)cc(/C=C/CO)cc3[C@@H]2CO)cc1OC
3. COc1cc([C@H]2Oc3c(OC)cc(/C=C/C=O)cc3[C@@H]2CO)ccc1O

[2.2, 0.3, 3.8]

* * *

Experiment: Effect on tyrosinase mRNA expression in mouse B16-4A5 cells assessed as tyrosinase mRNA/beta-actin mRNA expression ratio at 30 uM in presence of 1 mM theophylline after 72 hrs by RT-PCR
Type: functional
Param label: returns y when Ratio < 0.9, returns n otherwise, including exact equality.

# molecule, label_value
records = [
    ("COc1cc([C@H]2Oc3cc([C@H]4Oc5cc(O)cc(O)c5C(=O)[C@@H]4O)ccc3O[C@@H]2CO)ccc1O [SILYBIN A]", "n"),
    ("COc1cc([C@@H]2Oc3ccc([C@H]4Oc5cc(O)cc(O)c5C(=O)[C@@H]4O)cc3O[C@H]2CO)ccc1O [ISOSILYBIN B]", "y"),
    ("COc1cccc(-c2cc(=O)c3ccccc3o2)c1N", "n"),
    ("COc1cc([C@H]2Oc3ccc([C@H]4Oc5cc(O)cc(O)c5C(=O)[C@@H]4O)cc3O[C@@H]2CO)ccc1O [ISOSILYBIN A]", "y"),
]

Below: the item to evaluate.
Could you please tell me whether Ratio recorded for COc1cc([C@@H]2Oc3cc([C@H]4Oc5cc(O)cc(O)c5C(=O)[C@@H]4O)ccc3O[C@H]2CO)ccc1O [SILYBIN B] is less than 0.9? y

* * *

Molecular target: UniProt O42713
Sequence (O42713 whole entry): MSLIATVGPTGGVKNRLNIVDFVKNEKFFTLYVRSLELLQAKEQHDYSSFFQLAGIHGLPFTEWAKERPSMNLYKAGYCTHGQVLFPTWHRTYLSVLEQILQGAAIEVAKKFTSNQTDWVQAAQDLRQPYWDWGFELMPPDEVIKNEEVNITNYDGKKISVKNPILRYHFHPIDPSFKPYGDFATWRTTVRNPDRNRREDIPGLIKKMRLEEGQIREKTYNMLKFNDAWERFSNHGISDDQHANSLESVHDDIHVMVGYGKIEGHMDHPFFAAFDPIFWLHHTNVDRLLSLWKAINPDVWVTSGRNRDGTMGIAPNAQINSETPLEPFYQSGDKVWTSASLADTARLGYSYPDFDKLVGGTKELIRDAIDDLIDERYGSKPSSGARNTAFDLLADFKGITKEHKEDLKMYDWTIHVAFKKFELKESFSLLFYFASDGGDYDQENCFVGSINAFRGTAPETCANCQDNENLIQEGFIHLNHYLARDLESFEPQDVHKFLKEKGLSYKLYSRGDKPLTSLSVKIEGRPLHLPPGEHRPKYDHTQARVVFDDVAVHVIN
readout_label: IC50 (µM)
Give bare numbers, in µM.

UniProt O42713 / IC50 / O=c1c(O)c(-c2ccc(O)c(O)c2)oc2cc(O)cc(O)c12 : value? 31

* * *

Test: Toxicity in mouse B16-4A5 cells assessed as inhibition of cell proliferation at 3 uM in presence of 1 mM theophylline after 72 hrs by WST8 dye reduction assay
Assay type: cell-based
readout_label: inhibition at 72 h, 3 µM (%)
One number for each entry, in %.

# compound, uom, endpoint_value
measured = [
    ("O=c1c(O)c(-c2ccc(O)c(O)c2)oc2cc(O)cc(O)c12", "%", -7.7),
    ("COc1cc([C@H]2Oc3cc([C@H]4Oc5cc(O)cc(O)c5C(=O)[C@@H]4O)ccc3O[C@@H]2CO)ccc1O", "%", -10.7),
    ("COc1cc([C@H]2Oc3ccc([C@H]4Oc5cc(O)cc(O)c5C(=O)[C@@H]4O)cc3O[C@@H]2CO)ccc1O", "%", -1.5),
    ("O=c1cc(-c2ccc(O)c(O)c2)oc2cc(O)cc(O)c12", "%", -4.9),
    ("COc1cc(C(O)C(CO)Oc2ccc(/C=C/C=O)cc2OC)ccc1O (stereo not drawn)", "%", 13.6),
]

Please go through the list and note inhibition at 72 h, 3 µM for each compound.
1. COc1cc([C@@H]2Oc3cc([C@H]4Oc5cc(O)cc(O)c5C(=O)[C@@H]4O)ccc3O[C@H]2CO)ccc1O
2. COc1cc(/C=C/C=O)ccc1O
3. COc1ccc([C@H]2Oc3c(OC)cc(/C=C/CO)cc3[C@@H]2CO)cc1OC

[-1.4, -3.2, 1.3]

* * *

Record form. Attribute: inhibition at 72 h, 10 µM. Fill in for each entry.
Assay: Toxicity in mouse B16-4A5 cells assessed as inhibition of cell proliferation at 10 uM in presence of 1 mM theophylline after 72 hrs by WST8 dye reduction assay
Type: cell-based
Numbers only, in %.

Worked cases, answers included:
# compound, inhibition at 72 h, 10 µM (%)
data = [
    ("COc1cc([C@H]2Oc3ccc([C@H]4Oc5cc(O)cc(O)c5C(=O)[C@@H]4O)cc3O[C@@H]2CO)ccc1O [ISOSILYBIN A]", -2.5),
    ("COc1cc([C@@H]2Oc3cc([C@H]4Oc5cc(O)cc(O)c5C(=O)[C@@H]4O)ccc3O[C@H]2CO)ccc1O [SILYBIN B]", 11.8),
    ("O=c1c(O)c(-c2ccc(O)c(O)c2)oc2cc(O)cc(O)c12 [QUERCETIN]", -8.6),
]

For each of the items listed, what is its inhibition at 72 h, 10 µM?
1. O=Cc1ccc(O)c(O)c1 [PROTOCATECHUALDEHYDE]
2. COc1cc([C@H]2Oc3cc([C@H]4Oc5cc(O)cc(O)c5C(=O)[C@@H]4O)ccc3O[C@@H]2CO)ccc1O [SILYBIN A]
3. O=Cc1ccc(O)cc1 [4-HYDROXYBENZALDEHYDE]

1: -3.7; 2: 7.5; 3: -21

* * *

Assign inhibition at 72 h, 30 µM to each entry below.
Experiment: Toxicity in mouse B16-4A5 cells assessed as inhibition of cell proliferation at 30 uM in presence of 1 mM theophylline after 72 hrs by WST8 dye reduction assay
Format: cell-based
One number for each entry, in %.

# compound, inhibition at 72 h, 30 µM / %
rows = [
    ("COc1cc([C@H]2Oc3c(OC)cc(/C=C/C=O)cc3[C@@H]2CO)ccc1O", 40.3),
    ("COc1cc(/C=C/C=O)ccc1O", 11.5),
    ("O=Cc1ccc(O)c(O)c1", 11.4),
]

# batch: return inhibition at 72 h, 30 µM for each of the 5 compounds below
1. COc1cc([C@H]2Oc3ccc([C@H]4Oc5cc(O)cc(O)c5C(=O)[C@@H]4O)cc3O[C@@H]2CO)ccc1O
2. O=c1cc(-c2ccc(O)c(O)c2)oc2cc(O)cc(O)c12
3. COc1cc([C@H]2Oc3cc([C@H]4Oc5cc(O)cc(O)c5C(=O)[C@@H]4O)ccc3O[C@@H]2CO)ccc1O
4. COc1cc(C(O)C(CO)Oc2ccc(/C=C/C=O)cc2OC)ccc1O (configuration not stated)
5. COc1cc([C@H]2Oc3c(OC)cc(/C=C/CO)cc3[C@@H]2CO)ccc1O

1: 16; 2: 23.4; 3: 33.8; 4: 91.5; 5: 23.3

* * *

Experiment: Toxicity in mouse B16-4A5 cells assessed as inhibition of cell proliferation at 30 uM in presence of 1 mM theophylline after 72 hrs by WST8 dye reduction assay
Format: cell-based
readout_label: inhibition at 72 h, 30 µM

Here is how some compounds turned out for inhibition at 72 h, 30 µM.
# compound, inhibition at 72 h, 30 µM
measured = [
    ("O=C1C[C@@H](c2ccc(O)cc2)Oc2cc(O)cc(O)c21", "< 8.8%"),
    ("COc1cc(C=O)ccc1O", "< 8.8%"),
    ("O=C(O)c1ccc(O)c(O)c1", "< 8.8%"),
    ("COc1cc(/C=C/C(=O)O)ccc1O [FERULATE]", "< 8.8%"),
    ("COc1cc(C(O)C(CO)Oc2ccc(/C=C/CO)cc2OC)ccc1O (centres undefined)", "< 8.8%"),
    ("COc1cc(C[C@H]2CO[C@H](c3ccc(O)c(OC)c3)[C@H]2CO)ccc1O", "< 8.8%"),
]

For the 3 compounds below, give their inhibition at 72 h, 30 µM values.
1. COc1cc([C@@H]2Oc3c(O)cc(C=O)cc3[C@H]2CO)ccc1O
2. O=C1c2c(O)cc(O)cc2O[C@@H](c2ccc(O)c(O)c2)[C@H]1O [(+)-EPITAXIFOLIN]
3. COc1cc(C(=O)C(O)CO)ccc1O (single isomer, unassigned; (+))

< 8.8%
< 8.8%
< 8.8%
